The values you see were collected from patent US20150252107A1.

Biological target: T1, hAPLNR (Homo sapiens, UniProt P35414)
T1 construct: expressed in transfected cells
T1 sequence (P35414 1-380): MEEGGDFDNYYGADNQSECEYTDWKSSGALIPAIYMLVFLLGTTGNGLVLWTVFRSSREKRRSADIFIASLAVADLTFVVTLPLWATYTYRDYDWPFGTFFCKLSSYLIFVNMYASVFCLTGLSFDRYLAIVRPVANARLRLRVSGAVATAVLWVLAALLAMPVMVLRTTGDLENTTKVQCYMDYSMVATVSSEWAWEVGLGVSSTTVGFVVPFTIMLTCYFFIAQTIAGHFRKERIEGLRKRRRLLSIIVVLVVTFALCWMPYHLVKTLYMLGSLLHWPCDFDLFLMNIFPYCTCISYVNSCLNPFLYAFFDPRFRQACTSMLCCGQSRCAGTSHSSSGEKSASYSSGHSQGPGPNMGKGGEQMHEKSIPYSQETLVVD
Experiment: cyclic AMP (CRE-luciferase) assay, activation of hAPLNR in HEK293/CRE-luc/hAPLNR cells
Format: cell-based
Details: Table 6A; % of maximum Apelin activation, without Apelin
Description: The ability of anti-APLNR antibodies to activate hAPLNR-mediated cell signaling was measured using a cyclic AMP assay. The hAPLNR is a 7-transmembrane G-protein coupled receptor (GPCR). The resulting cell line, HEK293/CRE-luc/hAPLNR, was maintained in DMEM containing 10% FBS, NEAA, penicillin/streptomycin, and 100 μg/mL Hygromycin B. […] The results of all assays were analyzed using nonlinear regression (4-parameter logistics) within Prism 5 software (GraphPad).
measured parameter: % Activation at 100 nM mAb (at 5 uM Forskolin)

H4H9113P: anti-APLNR antibody, HCVR/LCVR SEQ ID NOs 210/218, human IgG4 Fc (antibody, V domains shown, human IgG4 Fc) VH: QVQLVQSGAEVKKPGASVEVSCKASGYTFTDYYIHWIRQAPGQGLEWMGWINPDSGRTNYAQKFQVRVTMTRDTSITTAYMELNRLKSDDTAVYYCARGPLRGYSGYDFFDYWGQGTLVTVSS VL: DIQMTQSPSSLSASVGDRVTITCRASQGIRNDLGWYQQKPGKAPNRLIYAASSLQSGVPSRFSGSGSGTEFTLTISSLHPEDFATYSCLQHNSFPLTFGGGTKVEIK :: No Activation
H4H9112P: anti-APLNR antibody, HCVR/LCVR SEQ ID NOs 194/202, human IgG4 Fc (antibody, V domains shown, human IgG4 Fc) VH: QVQLVQSGAEVKKPGASVEVSCKASGYTFTDYYIHWIRQAPGQGLEWMGWINPDSGRTNYAQKFQVRVTMTRDTSITTAYMELNRLKSDDTAVYYCARGPLRGYSGYDFFDYWGQGTLVTVSS VL: DIQMTQSPSSLSAFVGDRVTITCRASQSISSYLNWYQQKPGKAPKLLIYTASTLQRGVPSRFRGSGSGTDFTLTISSLQPEDFATYYCHQTYSIPITFGQGTRLEIK :: No Activation
H4H9104P: anti-APLNR antibody, HCVR/LCVR SEQ ID NOs 178/186, human IgG4 Fc (antibody, V domains shown, human IgG4 Fc) VH: QVQLVESGGDLVKPGGSLRLSCAASGFTFSDYYMNWIRQAPGKGLEWVSYISSSGSTIHYADSVKGRFTISRDNAKNLVYLRMNSLRAEDTAVYFCAREREVHDYSDPYFFFYGMDVWGQGTTVTVSS VL: DIQMTQSPSSVSASVGDRVTITCRASQDVSSWLAWYQHKPGKAPKLLIFAASSLQSGVPSRFSGSGSGTDFTLTISSLQSEDFATYYCQQANSFPLTFGGGTKVEIK :: No Activation
